Experiment: inhibitors of Sendai virus-induced IRF3 signaling, primary screen, TLR/RLR signaling modifier project, cell-based, Sendai virus stimulus, luciferase, 10K MLSCN set (AID 602276);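 note: firefly luciferase from ISG56 promoter only with Renilla not read in this screen; 0% = Sendai virus plus DMSO and 100% = medium plus DMSO without virus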
Conditions: HEK293 RL24 IRF3 luciferase reporter, at 10 µM, stronger effect = higher value
Activity calls are given as the source filed them.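 Rule for the calls: active = inhibition at or above 50% at 10 µM; inactive = inhibition below 50%.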
READOUT: inhibition

In [3]: df
Out[3]:
                                   molecule    endpoint_result
0  COC(=O)c1cc(OC)c(OC)cc1NC(=O)c1ccc(Br)o1   2.63% (inactive)
1            COc1cccc(Nc2cc(C)nc3ccccc23)c1  -11.6% (inactive)
2  O=C1CC(c2ccccc2)n2nc(NC(=O)c3ccccn3)nc2N1 (stereo not drawn)   9.98% (inactive)

Provide inhibition values for the following items, in order.
1. O=C(CCN1C(=O)COc2ccccc21)NCCCN1CCN(c2ccccc2F)CC1
2. CCOc1ccc(C(=O)OCc2nnc(-c3cccs3)o2)cc1OC
3. Cn1c(C(=O)Nc2ccc3c(c2)OCO3)cc2c(=O)n(C)c3ccccc3c21
4. Cc1ccc(NC(=O)CCN2CCc3ccccc3C2)cc1
5. Cc1csc(NC(=O)c2cc3c(s2)-c2ccccc2OC3)n1

RESULT:
1. 11.7% (inactive)
2. 12.1% (inactive)
3. -13.1% (inactive)
4. 5.12% (inactive)
5. -42% (inactive)

Provide inhibition values for the following items, in order.
1. Cc1ccc(Cn2c(SCCN3CCCCC3)nc3c2c(=O)[nH]c(=O)n3C)cc1
2. COC(=O)c1cc(-c2c(C)oc3cc(O)ccc3c2=O)c(C)o1
3. Cc1cc(C(=O)Nc2cccnc2)no1
4. COC(=O)c1ccccc1NC(=O)COc1ccc(S(=O)(=O)N2CCCC2)cc1C

RESULT:
3.78% (inactive)
4.96% (inactive)
-17% (inactive)
16.3% (inactive)

Provide inhibition values for the following items, in order.
1. COc1ccc(OC)c(C2C(C(=O)Nc3ccc(F)cc3)=C(C)Nc3nc(CCCO)nn32)c1 (stereo not drawn)
2. CCc1ccc(C2CC(c3ccccc3)n3ncnc3N2)cc1 (stereo not drawn)
3. c1coc(-c2nnc(NC3=NCCC3)o2)c1
4. CCCCCOc1ccc(C2NC(=O)NC2=O)cc1 (stereo not drawn)
5. O=C(CCc1nc2ccccc2[nH]1)Nc1ccc2c(c1)OCO2
6. COc1ccc(-c2ccc(-c3nnn(CC(C)=O)n3)cc2)cc1

RESULT:
0.814% (inactive)
13.8% (inactive)
-15.4% (inactive)
-12.1% (inactive)
-10.7% (inactive)
-41% (inactive)

Provide inhibition values for the following items, in order.
1. COCCCNC(=O)c1c(N)n(-c2cccc(S(N)(=O)=O)c2)c2nc3ccccc3nc12
2. CC(C)CNS(=O)(=O)c1ccc(OCC(=O)Nc2ccc3c(c2)OCO3)c(Cl)c1
3. CCOC(=O)N1CCC(NC(=O)Cn2c3c(c(-c4ccccc4Cl)cc2=O)CCC3)CC1
4. CCn1c(SCC(=O)Nc2cc(C)ccc2C)nc2c(c1=O)SC(C)C2 (stereo not drawn)
5. CCN(CC)Cc1csc(C(N)=O)c1

RESULT:
["10.6% (inactive)", "6.42% (inactive)", "9.23% (inactive)", "-13.9% (inactive)", "5.97% (inactive)"]
